experiment: Kinetic solubility assay; format: physicochemical; settings: PBS buffer, pH 7.4; read-out: Solubility Mean
Bridge positions count the residues as written; N and C are the ends. Square brackets hold non-standard residues; d marks the D form. Peptide text beside a SMILES is read from it. Phe(4-CF3) = N[C@@H](Cc1ccc(C(F)(F)F)cc1)C(=O)O; Dmt = Cc1cc(O)cc(C)c1C[C@H](N)C(=O)O
Assay readout: solubility at 90 min (µM)
The answer is to be given in µM; state only the numeric part.

Query: Param item = Cc1cc(O)cc(C)c1C[C@H](N)C(=O)N[C@@H]1CCCCNC(=O)C[C@@H](C(N)=O)NC(=O)[C@H](Cc2ccc(C(F)(F)F)cc2)NC(=O)[C@H](Cc2ccccc2)NC1=O [Peptide F-81, Dmt-c[D-Lys-Phe-p-CF3-Phe-Asp]NH2] (H-[Dmt][dK]F[Phe(4-CF3)]D-NH2; lactam 2-5 (inferred)) ; retrieve measured solubility at 90 min.
Response: 345
